MEASURED TARGET: TG2 (Cavia cutleri)
Sequence (P08587 whole entry): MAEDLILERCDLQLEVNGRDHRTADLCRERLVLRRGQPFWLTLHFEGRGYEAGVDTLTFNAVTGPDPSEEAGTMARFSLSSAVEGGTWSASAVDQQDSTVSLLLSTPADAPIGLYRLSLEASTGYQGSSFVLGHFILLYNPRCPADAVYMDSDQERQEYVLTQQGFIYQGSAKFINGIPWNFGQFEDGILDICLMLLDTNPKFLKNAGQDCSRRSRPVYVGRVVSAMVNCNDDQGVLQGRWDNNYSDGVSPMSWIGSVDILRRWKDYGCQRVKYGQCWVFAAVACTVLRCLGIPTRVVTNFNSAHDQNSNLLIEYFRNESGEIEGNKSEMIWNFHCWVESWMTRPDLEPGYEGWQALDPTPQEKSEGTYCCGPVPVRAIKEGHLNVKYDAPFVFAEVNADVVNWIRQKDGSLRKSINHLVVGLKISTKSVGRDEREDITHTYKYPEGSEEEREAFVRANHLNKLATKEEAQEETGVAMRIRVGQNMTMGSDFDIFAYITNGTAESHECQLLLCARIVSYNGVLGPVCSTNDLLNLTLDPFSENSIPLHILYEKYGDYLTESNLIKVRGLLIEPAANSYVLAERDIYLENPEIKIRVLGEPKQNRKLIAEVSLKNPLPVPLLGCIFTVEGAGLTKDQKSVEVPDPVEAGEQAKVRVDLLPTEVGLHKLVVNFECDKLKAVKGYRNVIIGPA
MEASURED METRIC: pKd
Scale: negative log10 of molar concentration, which is what pKd denotes.

Exercise: // fetch pKd; item: `Cc1cc(N(C)C)nc(Nc2ccc(NC(=O)Cc3ccccc3)cc2)n1` ; system: TG2 (Cavia cutleri)
Solution: 5.29
